The measurements presented in this section are drawn from patent US11642413B2.

# MEASURED_ON: heparin-induced aggregated Tau (aTau) (Homo sapiens (Human))
# Sequence (P10636 other isoform, or with tags, fused parts or gaps): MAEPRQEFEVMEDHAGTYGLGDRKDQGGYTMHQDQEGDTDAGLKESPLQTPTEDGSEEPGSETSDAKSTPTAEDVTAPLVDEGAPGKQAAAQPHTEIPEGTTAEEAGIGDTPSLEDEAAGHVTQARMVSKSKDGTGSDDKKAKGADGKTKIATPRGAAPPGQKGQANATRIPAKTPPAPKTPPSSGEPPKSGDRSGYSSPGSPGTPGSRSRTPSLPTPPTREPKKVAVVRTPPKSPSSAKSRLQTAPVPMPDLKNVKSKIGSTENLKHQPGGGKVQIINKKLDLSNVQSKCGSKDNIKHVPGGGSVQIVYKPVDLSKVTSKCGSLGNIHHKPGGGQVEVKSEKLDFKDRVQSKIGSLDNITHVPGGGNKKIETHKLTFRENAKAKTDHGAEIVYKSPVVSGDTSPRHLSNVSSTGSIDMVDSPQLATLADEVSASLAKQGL
# TEST: PBB5 competition assay
# Assay type: binding
# MEASUREMENT_CONTEXT: competition assay with PBB5
READOUT_NAME: Bmax (%)

I. CN(C)c1ccc(-c2ccc(-c3cn4cc(OCCOCCOCCOCCOCCOCCOc5ccc6c(c5)C(=O)N(C5CCC(=O)NC5=O)C6=O)ccc4n3)cc2)c(F)n1 (stereo not drawn) [Compound 160744]
II. CN(C)c1ccc(-c2ccc(-c3nc4ccc(NCCOCCOCCOCCOCCOCCOc5ccc6c(c5)C(=O)N(C5CCC(=O)NC5=O)C6=O)cc4s3)cc2)cn1 (stereo not drawn) [Compound 159985]
Pick the one with the larger Bmax: I vs II Refer to your chosen item by its label in the answer.
I
(I: 113%, II: 71%)
